B1: TPR 5TU (parent)
chain: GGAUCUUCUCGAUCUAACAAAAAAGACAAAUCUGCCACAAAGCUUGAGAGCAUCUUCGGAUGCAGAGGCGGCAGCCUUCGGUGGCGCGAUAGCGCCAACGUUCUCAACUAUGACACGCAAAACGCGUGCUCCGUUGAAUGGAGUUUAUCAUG

# Variants of: B1
# ASSAY COMMENT: polymerase ribozyme fitness, log enrichment relative to wild type (log ratio); higher = more active; in vitro selection for triplet polymerase activity
Variants at the floor of the assay were thinned out.
In this section we review reported polymerase ribozyme fitness (log ratio) values for a set of variants.

[
  {
    "VARIANT ANNOTATION": "A16C A150U",
    "polymerase ribozyme fitness (log ratio)": -0.0438
  },
  {
    "VARIANT ANNOTATION": "C36A U56G C85U C93U G94C",
    "polymerase ribozyme fitness (log ratio)": "≤ -4.2"
  },
  {
    "VARIANT ANNOTATION": "A17G G83U A107U U135C",
    "polymerase ribozyme fitness (log ratio)": "≤ -4.2"
  },
  {
    "VARIANT ANNOTATION": "U7G A26C U31G U55A G86C G126U",
    "polymerase ribozyme fitness (log ratio)": "≤ -4.2"
  },
  {
    "VARIANT ANNOTATION": "C36G U145A",
    "polymerase ribozyme fitness (log ratio)": -3.88
  },
  {
    "VARIANT ANNOTATION": "C35U C43G C93A C103G",
    "polymerase ribozyme fitness (log ratio)": "≤ -4.2"
  },
  {
    "VARIANT ANNOTATION": "C14U U55A U56A C76A",
    "polymerase ribozyme fitness (log ratio)": -2.4
  },
  {
    "VARIANT ANNOTATION": "G11C C14G C93U C125A",
    "polymerase ribozyme fitness (log ratio)": "≤ -4.2"
  },
  {
    "VARIANT ANNOTATION": "A20G G25A A40U A47G G48C C85A A142G",
    "polymerase ribozyme fitness (log ratio)": "≤ -4.2"
  },
  {
    "VARIANT ANNOTATION": "U13C A49C A52U G71A A113U",
    "polymerase ribozyme fitness (log ratio)": "≤ -4.2"
  },
  {
    "VARIANT ANNOTATION": "A29U A107C",
    "polymerase ribozyme fitness (log ratio)": "≤ -4.2"
  },
  {
    "VARIANT ANNOTATION": "A21C A41U G71A A98U G136U A147U U148C",
    "polymerase ribozyme fitness (log ratio)": "≤ -4.2"
  },
  {
    "VARIANT ANNOTATION": "A12C A64G C85A G100C",
    "polymerase ribozyme fitness (log ratio)": "≤ -4.2"
  },
  {
    "VARIANT ANNOTATION": "U55G A73C C87A",
    "polymerase ribozyme fitness (log ratio)": "≤ -4.2"
  },
  {
    "VARIANT ANNOTATION": "A23U A26C G50A",
    "polymerase ribozyme fitness (log ratio)": "≤ -4.2"
  },
  {
    "VARIANT ANNOTATION": "A23U C43G G48A G92A A98G A147U G152C",
    "polymerase ribozyme fitness (log ratio)": -3.84
  },
  {
    "VARIANT ANNOTATION": "A17U A20C C57U A60U C93A G94U A122C G126U",
    "polymerase ribozyme fitness (log ratio)": "≤ -4.2"
  },
  {
    "VARIANT ANNOTATION": "A37G G74U C87G A115C",
    "polymerase ribozyme fitness (log ratio)": "≤ -4.2"
  },
  {
    "VARIANT ANNOTATION": "A19G G50A G67A A91U C93A",
    "polymerase ribozyme fitness (log ratio)": "≤ -4.2"
  },
  {
    "VARIANT ANNOTATION": "C87A U151G",
    "polymerase ribozyme fitness (log ratio)": "≤ -4.2"
  },
  {
    "VARIANT ANNOTATION": "C96G A142U U146A",
    "polymerase ribozyme fitness (log ratio)": -1.97
  },
  {
    "VARIANT ANNOTATION": "A12U U61G C93U G94A U144G",
    "polymerase ribozyme fitness (log ratio)": -2.83
  }
]
